System: TA3/Ha
Test: Induction of apoptosis in mouse TA3/Ha cells assessed as caspase 3 activation at 0.5 uM after 24 hrs by Western blot analysis
Type: functional, cell-based
Active and inactive are the calls of the source. The rule behind the calls is not given here.
Possible outcomes: active, inactive

{"SMILES_STRING": "O=C(OCCCCCCCC[P+](c1ccccc1)(c1ccccc1)c1ccccc1)c1cc(O)c(O)c(O)c1.[Br-]", "ASSAY_TARGET": "TA3/Ha", "CLASS_LABEL": "inactive"}
{"SMILES_STRING": "O=C(OCCCCCCCCCCC[P+](c1ccccc1)(c1ccccc1)c1ccccc1)c1cc(O)c(O)c(O)c1.[Br-]", "ASSAY_TARGET": "TA3/Ha", "CLASS_LABEL": "inactive"}
{"SMILES_STRING": "O=C(OCCCCCCCCCC[P+](c1ccccc1)(c1ccccc1)c1ccccc1)c1cc(O)c(O)c(O)c1.[Br-]", "ASSAY_TARGET": "TA3/Ha", "CLASS_LABEL": "active"}
{"SMILES_STRING": "O=C(OCCCCCCCCCCCC[P+](c1ccccc1)(c1ccccc1)c1ccccc1)c1cc(O)c(O)c(O)c1.[Br-]", "ASSAY_TARGET": "TA3/Ha", "CLASS_LABEL": "inactive"}

###

Assay: Cytotoxicity against mouse multidrug-resistant TA3-MTX-R cells after 48 hrs by neutral red assay
Format: functional, cell-based
# reported log10(IC50); entries follow
PARAMETER_MEASURED: log10(IC50) (log10 of the value in µM)

{"COMPOUND": "CCCCCCCCCCCCOC(=O)c1cc(O)c(O)c(O)c1 [DODECYL GALLATE]", "OBSERVED_MEASUREMENT": 0.48}
{"COMPOUND": "O=C(OCCCCCCCCCCC[P+](c1ccccc1)(c1ccccc1)c1ccccc1)c1cc(O)c(O)c(O)c1.[Br-]", "OBSERVED_MEASUREMENT": 0.57}
{"COMPOUND": "O=C(OCCCCCCCC[P+](c1ccccc1)(c1ccccc1)c1ccccc1)c1cc(O)c(O)c(O)c1.[Br-]", "OBSERVED_MEASUREMENT": 1.16}
{"COMPOUND": "O=C(OCCCCCCCCCCCC[P+](c1ccccc1)(c1ccccc1)c1ccccc1)c1cc(O)c(O)c(O)c1.[Br-]", "OBSERVED_MEASUREMENT": 0.08}
{"COMPOUND": "O=C(OCCCCCCCCCC[P+](c1ccccc1)(c1ccccc1)c1ccccc1)c1cc(O)c(O)c(O)c1.[Br-]", "OBSERVED_MEASUREMENT": -0.42}
{"COMPOUND": "O=C(O)c1cc(O)c(O)c(O)c1", "OBSERVED_MEASUREMENT": 2.20}
{"COMPOUND": "CCCCCCCCOC(=O)c1cc(O)c(O)c(O)c1 [OCTYL_GALLATE]", "OBSERVED_MEASUREMENT": 1.47}

###

System: CCRF-CEM
Assay: Cytotoxicity against human CCRF-CEM cells after 48 hrs by neutral red assay
Format: functional, cell-based
# note: boundary value 20 µM maps to NO; IC50 below it maps to YES

{"COMPOUND": "CCCCCCCCCCCCOC(=O)c1cc(O)c(O)c(O)c1 [DODECYL GALLATE]", "CLASS_LABEL": "YES"}
{"COMPOUND": "O=C(OCCCCCCCCCCCC[P+](c1ccccc1)(c1ccccc1)c1ccccc1)c1cc(O)c(O)c(O)c1.[Br-]", "CLASS_LABEL": "YES"}
{"COMPOUND": "c1ccc(P(c2ccccc2)c2ccccc2)cc1", "CLASS_LABEL": "NO"}
{"COMPOUND": "O=C(O)c1cc(O)c(O)c(O)c1 [GALLIC ACID]", "CLASS_LABEL": "NO"}
{"COMPOUND": "CCCCCCCCOC(=O)c1cc(O)c(O)c(O)c1 [OCTYL_GALLATE]", "CLASS_LABEL": "NO"}
{"COMPOUND": "O=C(OCCCCCCCCCC[P+](c1ccccc1)(c1ccccc1)c1ccccc1)c1cc(O)c(O)c(O)c1.[Br-]", "CLASS_LABEL": "YES"}
{"COMPOUND": "O=C(OCCCCCCCC[P+](c1ccccc1)(c1ccccc1)c1ccccc1)c1cc(O)c(O)c(O)c1.[Br-]", "CLASS_LABEL": "NO"}
